# Tested on: HOP-62
# experimentalProtocol: NCI60 antitumor screening
# Assay type: cell-based, human
# cond: Homo sapiens; 10 μM single dose; HOP-62 (non-small cell lung cancer); read-out: growth inhibition percent (GI%)
Overview of reported inhibition at 10 µM across a group of compounds:

N#Cc1c(-c2ccc(F)cc2)nc(SCc2ccc([N+](=O)[O-])cc2)nc1N1CCNCC1 ... < 10%
Cc1ccc(CSc2nc(-c3ccc(F)cc3)c(C#N)c(N3CCN(C)CC3)n2)cc1 ... 12.8%
Cc1ccc(CSc2nc(-c3ccc(F)cc3)c(C#N)c(N3CCN(c4ccccc4)CC3)n2)cc1 ... < 10%
CN1CCN(c2nc(SCc3ccc(F)cc3)nc(-c3ccc(F)cc3)c2C#N)CC1 ... 64.4%
N#Cc1c(-c2ccc(F)cc2)nc(SCc2ccc(F)cc2)nc1N1CCN(c2ccccc2)CC1 ... < 10%

inhibition at 10 µM of N#Cc1c(-c2ccc(F)cc2)nc(SCc2ccc(F)cc2)nc1N1CCNCC1 , assay on HOP-62, is > 100%

inhibition at 10 µM of Cc1ccc(CSc2nc(-c3ccc(F)cc3)c(C#N)c(N3CCNCC3)n2)cc1 , assay on HOP-62, is < 10%

inhibition at 10 µM of CN1CCN(c2nc(SCc3ccccc3)nc(-c3ccc(F)cc3)c2C#N)CC1 , assay on HOP-62, is 10.3%

inhibition at 10 µM of N#Cc1c(-c2ccc(F)cc2)nc(SCc2ccccc2)nc1N1CCNCC1 , assay on HOP-62, is > 100%
